# Test system: ARO
# ASSAY_CONDITIONS: read-out: IC50 (cytostatic effect)
PROPERTY_MEASURED: IC50 (µM)
Response body: numeric value in µM, unit text excluded.

Record request: IC50 value, item CS(=O)(=O)O.Cc1ccc(NC(=O)c2ccc(CN3CCN(C)CC3)cc2)cc1Nc1nccc(-c2cccnc2)n1 [SALT I]
5.9

* * *

# Test system: FRO
# ASSAY_CONDITIONS: read-out: IC50 values, mean (50% reduction in cell growth), 72 h of incubation, n=3
PROPERTY_MEASURED: IC50 (µM)
Response body: numeric value in µM, unit text excluded.

Record request: IC50 value, item CS(=O)(=O)O.Cc1ccc(NC(=O)c2ccc(CN3CCN(C)CC3)cc2)cc1Nc1nccc(-c2cccnc2)n1 [SALT I]
6.4
